B1: PLAGL1 (parent)
chain: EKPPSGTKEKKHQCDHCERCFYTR

Variants of: B1
Assay: protein stability index of a GFP-peptide fusion (GPS, HEK-293T) (PSI 1-6); higher = more stable;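 further: lentivirally expressed fusions sorted by FACS into six bins by GFP to DsRed ratio, PSI derived from sequencing read proportions per bin multiplied by bin number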
Details: c terminus: a fixed tail appended
observation_type: protein stability index

K10L	4.04
P4Q	3.48
K8T	3.48
K11M	4.04
T7P	3.74
C20G	2.5

**Query** Can you look up the measured protein stability index of `H12E` for me?
**Result** 3.04

**Query** // protein stability index lookup, key: `T23M`
**Result** 4.34

**Query** Give its protein stability index value. Item: `K2V`
**Result** 3.86

**Query** Tell me the measured protein stability index of `P4M` , please.
**Result** 3.45

**Query** Fill in: protein stability index of `E1F` is ___
**Result** 2.75

**Query** // lookup protein stability index for `E9C`
**Result** 4.63

**Query** Please report the recorded protein stability index for `Q13F` .
**Result** 3.2

**Query** I am curious: what protein stability index value has been reported for `T7Q` ?
**Result** 3.82

**Query** Could you tell me which protein stability index is on file for `C20F` ?
**Result** 2.56

**Query** GET /values?readout=protein stability index&item= `D15F`
**Result** 2.79

All values here come from the supplement of paper PMC10567573.
